We begin with a simple list: items and their reported TL1A Binding Level (Late).
MEASUREMENT TARGET: T1, human TL1A extracellular domain with N-terminal HIS and FLAG tag (human, UniProt O95150 72-251)
T1 construct: the whole entry is named
T1 sequence: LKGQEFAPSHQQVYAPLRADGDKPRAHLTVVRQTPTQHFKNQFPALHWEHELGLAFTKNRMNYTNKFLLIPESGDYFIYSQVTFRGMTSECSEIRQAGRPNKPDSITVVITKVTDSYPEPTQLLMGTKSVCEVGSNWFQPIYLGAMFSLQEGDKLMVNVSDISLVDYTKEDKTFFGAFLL
EXPERIMENT DESCRIPTION: SPR Run 5, Ab from supernatant captured on Protein A, TL1A 5 ug/mL, timepoint 220
QUANTITY KIND: TL1A Binding Level (Late) (RU)

BINDER: 320-424 (antibody, human IgG1, name in Kabat numbering, V domains shown, human IgG1, lambda) VH: QVQLVQSGAEVKKPGASVKVSCKASGYTFQSYDINWVRQAPGQGLEWMGWLNPNSGNTGYAQKFQGRVTMTADRSTSTAYMELSSLRSEDTAVYYCAREVPETAAFEYWGQGTLVTVSS VL: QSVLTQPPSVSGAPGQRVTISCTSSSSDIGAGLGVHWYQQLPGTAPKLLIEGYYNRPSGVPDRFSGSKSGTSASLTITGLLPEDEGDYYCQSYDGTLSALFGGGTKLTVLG
QUANTITY KIND: TL1A Binding Level (Late)
OBS VALUE: 10
--
BINDER: 320-408 (antibody, human IgG1, name in Kabat numbering, V domains shown, human IgG1, lambda) VH: QVQLVQSGAEVKKPGASVKVSCKASGYHFTSYDINWVRQAPGQGLEWMGWLNPNSGNTGYAQKFQGRVTMTADRSTSTAYMELSSLRSEDTAVYYCAREVPETAAFEYWGQGTLVTVSS VL: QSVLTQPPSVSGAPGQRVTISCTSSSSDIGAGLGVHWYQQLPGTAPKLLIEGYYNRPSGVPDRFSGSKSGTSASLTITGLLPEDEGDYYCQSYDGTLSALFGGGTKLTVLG
QUANTITY KIND: TL1A Binding Level (Late)
OBS VALUE: 12
